- Assay System: rat NaP2b (SLC34A2) (Rattus norvegicus, UniProt Q9JJ09)
- Construct: host or cells: HEK293
- Sequence (Q9JJ09 whole entry): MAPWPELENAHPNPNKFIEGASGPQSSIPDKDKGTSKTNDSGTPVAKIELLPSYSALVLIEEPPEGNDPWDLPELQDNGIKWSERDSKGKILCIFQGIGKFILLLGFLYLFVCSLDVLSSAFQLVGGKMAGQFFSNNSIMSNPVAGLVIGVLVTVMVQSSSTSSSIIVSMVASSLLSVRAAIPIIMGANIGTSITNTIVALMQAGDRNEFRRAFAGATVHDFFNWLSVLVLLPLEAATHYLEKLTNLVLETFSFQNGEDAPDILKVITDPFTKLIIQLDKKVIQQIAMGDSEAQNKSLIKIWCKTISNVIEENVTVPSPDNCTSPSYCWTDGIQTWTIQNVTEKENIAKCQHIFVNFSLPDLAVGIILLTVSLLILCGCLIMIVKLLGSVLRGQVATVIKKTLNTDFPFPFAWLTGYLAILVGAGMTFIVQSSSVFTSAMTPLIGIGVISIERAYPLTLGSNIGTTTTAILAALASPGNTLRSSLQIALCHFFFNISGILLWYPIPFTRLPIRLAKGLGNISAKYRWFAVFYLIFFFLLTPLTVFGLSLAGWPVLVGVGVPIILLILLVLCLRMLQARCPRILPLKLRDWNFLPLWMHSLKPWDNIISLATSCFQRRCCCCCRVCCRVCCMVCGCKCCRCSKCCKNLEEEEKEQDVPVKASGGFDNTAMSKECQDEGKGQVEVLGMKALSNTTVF
- Protocol Text: Inhibition of NaP2b-mediated Pi (33P) uptake in transfected HEK293 cells, rat NaP2b
- Format: cell-based
- Conditions Used: 33P Pi uptake, 0.1 mM phosphate, value given as pIC50 range
- Description: HEK293 cells were obtained from the American Type Culture collection and propagated per their instructions. […] The sequence of the human protein was mutated to insert a threonine after residue 37, and to introduce a N39D mutation. […] Cells were lysed by addition of 20 μL 0.1% Tween 80 followed by 100 μL scintillation fluid, and counted using a TopCount (Perkin Elmer). pIC50 (the negative log of the IC50) values of the test compounds were calculated using GraphPad Prism.
Quantity: IC50

Look over these answered cases.
Molecule	IC50
O=C(CCOCCOCCOCCOCCSCc1cccc(C(=O)Nc2ccc(N3CCCCC3)cc2-c2cc(C(=O)NCc3cccc(C(F)(F)F)c3)ccn2)c1)NCCOCCOCCOCCOCCOCCOCCOCCO	1 to 7.94 µM
CCN(CC)c1ccc(NC(=O)c2cccc(COCCOCCOCCOCCOCCOCCOC(=O)N3CCC(CCOCCO)CC3)c2)c(-c2cc(C(=O)NCc3cccc(C(F)(F)F)c3)ccn2)c1	1 to 7.94 µM
CCN(CC)c1ccc(NC(=O)c2cccc(COCCOCCOCCOCCOCCOCCN(C)CCN3CCOCC3)c2)c(-c2cc(C(=O)NCc3cccc(C(F)(F)F)c3)ccn2)c1	1 to 7.94 µM
O=C(NCc1cccc(C(F)(F)F)c1)c1ccnc(-c2cc(N3CCCCC3)ccc2NC(=O)c2cccc(CSCCOCCOCCOCCOCCC(=O)N(CCO)CCO)c2)c1	1 to 7.94 µM
CN(CCN1CCCN(C(=O)OC(C)(C)C)CC1)C(=O)c1cccc(C(=O)Nc2ccc(N3CCCCC3)cc2-c2cc(C(=O)N[C@H]3CCCc4ccccc43)ccn2)c1	< 1 µM
CN(CCN1CCOCC1)C(=O)c1cccc(C(=O)Nc2ccc(N3CC[C@H]4CCCC[C@@H]4C3)cc2-c2cc(C(=O)NCc3cccc(C(F)(F)F)c3)ccn2)c1	10 to 31.6 µM

Ask | // IC50 lookup, key: CCN(CC)c1ccc(NC(=O)c2cccc(CCCOCCOCCOCCOCCC(=O)N3CCN(S(=O)(=O)C(C)C)CC3)c2)c(-c2cc(C(=O)NCc3cccc(C(F)(F)F)c3)ccn2)c1
Reply | 1 to 7.94 µM

Ask | // IC50 lookup, key: COC[C@@H]1CCCN1c1ccc(NC(=O)c2cccc(C(=O)N(C)CCN3CCOCC3)c2)c(-c2cc(C(=O)NCc3cccc(C(F)(F)F)c3)ccn2)c1
Reply | 10 to 31.6 µM

Ask | // IC50 lookup, key: CN(CCN1CCN(C(=O)OC(C)(C)C)CC1)C(=O)c1cccc(C(=O)Nc2ccc(N3CCCCC3)cc2-c2cc(C(=O)NCc3cccc(C(F)(F)F)c3)ccn2)c1
Reply | 1 to 7.94 µM

Ask | // IC50 lookup, key: CCN(CC)c1ccc(NC(=O)c2cccc(CCCOCCOCCOCCOCCNS(=O)(=O)c3cccc(C(=O)O)c3)c2)c(-c2cc(C(=O)NCc3cccc(C(F)(F)F)c3)ccn2)c1
Reply | 1 to 7.94 µM

Ask | // IC50 lookup, key: CN(CCN1CCOCC1)C(=O)c1cccc(C(=O)Nc2ccc(N3CCCCC3)cc2-c2cc(C(=O)NCc3ccc(C(C)(C)C)cc3)ccn2)c1
Reply | 1 to 7.94 µM

Ask | // IC50 lookup, key: CCN(CC)c1ccc(NC(=O)c2cccc(C(=O)N(C)CCO)c2)c(-c2cc(C(=O)N[C@H]3CCCc4ccccc43)ccn2)c1
Reply | < 1 µM

Ask | // IC50 lookup, key: CCN(CC)c1ccc(NC(=O)c2cccc(CCCOCCOCCOCCOCCNC(=O)N(C)CCOCCOCCOCCOCCOCCOCCOC)c2)c(-c2cc(C(=O)NCc3cccc(C(F)(F)F)c3)ccn2)c1
Reply | 1 to 7.94 µM

Ask | // IC50 lookup, key: COc1ccc(C(F)(F)F)cc1CNC(=O)c1ccnc(-c2cc(N3CCCCC3)ccc2NC(=O)c2cccc(C(=O)N(C)CCN3CCOCC3)c2)c1
Reply | 1 to 7.94 µM

Ask | // IC50 lookup, key: CN(C)CCC#Cc1cccc(C(=O)Nc2ccc(Cl)cc2-c2cc(NCc3cccc(C(F)(F)F)c3)ncn2)c1 [Example 67, 2,2,2-trifluoroacetate]
Reply | 10 to 31.6 µM

----------
- Protocol Text: Stability of compounds in simulated gastric fluid (SGF)
- Format: in vitro ADME
- Conditions Used: simulated gastric fluid (3 mg/mL pepsin), incubation time 6 hr, relative to t=0
The reader will find reported % remaining, SGF values listed item by item below.

Look over these answered cases.
CN(CCN1CCC[C@H]1C(=O)NCCOCCOCCOCCC(=O)O)C(=O)c1cccc(C(=O)Nc2ccc(N3CCCCC3)cc2-c2cc(C(=O)N[C@H]3CCCc4ccccc43)ccn2)c1 >80%
CCN(CC)c1ccc(NC(=O)c2cccc(C(=O)N(C)CCN3CCC[C@H]3C(=O)NCCOCCOCCOCCOCCOCCOCCOCCOC)c2)c(-c2cc(C(=O)NCc3cccc(C(F)(F)F)c3)ccn2)c1 >80%
CCN(CC)c1ccc(NC(=O)c2cccc(CSc3cccc(CC(=O)N(C)CCOCCOCCOCCC(=O)O)c3)c2)c(-c2cc(C(=O)NCc3cccc(C(F)(F)F)c3)ccn2)c1 >80%
O=C(O)CCOCCOCCOCCOCCCc1cccc(C(=O)Nc2ccc(OC3CCC3)cc2-c2cc(C(=O)N[C@H]3CCCc4ccccc43)ccn2)c1 60-80%
O=C(CCOCCOCCOCCOCCSCc1cccc(C(=O)Nc2ccc(N3CCCCC3)cc2-c2cc(C(=O)NCc3cccc(C(F)(F)F)c3)ccn2)c1)NCCOCCOCCOCCOCCOCCOCCOCCO >80%

Ask | // % remaining, SGF lookup, key: CCN(CC)c1ccc(NC(=O)c2cccc(CSCCOCCOCCOCCOCCC(=O)NCCOCCOCCOCCOCCOCCOCCOCCOC)c2)c(-c2cc(C(=O)NCc3cccc(C(F)(F)F)c3)ccn2)c1
Reply | >80%

Ask | // % remaining, SGF lookup, key: COCCN(C)C(=O)N1CCN(CCN(C)Cc2cccc(C(=O)Nc3ccc(N4CCCCC4)cc3-c3cc(C(=O)NCc4cccc(C(F)(F)F)c4)ccn3)c2)CC1
Reply | >80%

Ask | // % remaining, SGF lookup, key: CCN(CC)c1ccc(NC(=O)c2cccc(CSCCOCCOCCOCCOCCOCCOCCOCCOCCC(=O)O)c2)c(-c2cc(C(=O)N[C@H]3CCCc4ccccc43)ccn2)c1
Reply | >80%

Ask | // % remaining, SGF lookup, key: CN(CCOCCOCCOCCC(=O)N1CCN(CCOCCO)CC1)C(=O)c1cccc(C(=O)Nc2ccc(N3CCCCC3)cc2-c2cc(C(=O)N[C@H]3CCCc4ccccc43)ccn2)c1
Reply | >80%

Ask | // % remaining, SGF lookup, key: O=C(O)CCOCCOCCOCCNC(=O)c1cccc(SCc2cccc(C(=O)Nc3ccc(Cl)cc3-c3cc(C(=O)NCc4cccc(C(F)(F)F)c4)ccn3)c2)c1
Reply | 40-60%

Ask | // % remaining, SGF lookup, key: CCN(CC)c1ccc(NC(=O)c2cccc(C(=O)N(C)CCN3CCN(CCOCCOCCOCCOCCOCCOCCOC)C(=O)C3)c2)c(-c2cc(C(=O)N[C@H]3CCCc4ccccc43)ccn2)c1
Reply | >80%

----------
- Protocol Text: Fecal recovery of orally administered compounds
- Type: in vivo, Sprague-Dawley rats
- Conditions Used: Structure (I) examples, Table 16; rat, oral gavage, feces collected until 48 hr after dosing
Quantity: % recovered in feces

Look over these answered cases.
Molecule	% recovered in feces
O=C(O)CCOCCOCCOCCNC(=O)Cc1cccc(SCc2cccc(C(=O)Nc3ccc(N4CCCCC4)cc3-c3cc(C(=O)NCc4cccc(C(F)(F)F)c4)ccn3)c2)c1 [Example 137]	<20%
CCN(CC)c1ccc(NC(=O)c2cccc(CCCOCCOCCOCCOCCNS(=O)(=O)c3ccc(CCC(=O)O)cc3)c2)c(-c2cc(C(=O)NCc3cccc(C(F)(F)F)c3)ccn2)c1 [Example 294]	>80%

Read the next record carefully.
Ask | // % recovered in feces lookup, key: CN(CCN1CCOCC1)C(=O)c1cccc(C(=O)Nc2ccc(N3CCCCC3)cc2-c2cc(C(=O)N[C@H]3CCCc4ccccc43)ccn2)c1.Cl [Example 37]
Reply | <20%

----------
- Protocol Text: Stability of compounds in simulated intestinal fluid (SIF)
- Type: in vitro ADME
- Conditions Used: simulated intestinal fluid (3 mg/mL pancreatin), incubation time 6 hr, relative to t=0
- Description: Test compounds were incubated at […] in simulated gastric fluid (SGF; standard USP solution with 3 mg/mL pepsin) or simulated intestinal fluid (SIF; standard USP solution with 3 mg/mL pancreatin) for 3 hr or 6 hr. HPLC-UV or HPLC-MS were used to determine test compound levels using peak area %. Results (Table 14) were reported as the percentage of test compound remaining after incubation in a given condition relative to test compound present at t=0 in the same condition.
Quantity: % remaining, SIF

Look over these answered cases.
CCN(CC)CCN(C)C(=O)CCOCCOCCOCCOCCSCc1cccc(C(=O)Nc2ccc(N3CCCCC3)cc2-c2cc(C(=O)NCc3cccc(C(F)(F)F)c3)ccn2)c1 >80%
CCN(CC)c1ccc(NC(=O)c2cccc(COCCOCCOCCOCCOCCOCCO)c2)c(-c2cc(C(=O)NCc3cccc(C(F)(F)F)c3)ccn2)c1 >80%

Read the next record carefully.
Ask | // % remaining, SIF lookup, key: CCN(CC)c1ccc(NC(=O)c2cccc(C(=O)N(C)CCN(C)CCOCCOCCOCCNC(=O)OC(C)(C)C)c2)c(-c2cc(C(=O)N[C@H]3CCCc4ccccc43)ccn2)c1
Reply | >80%
